The origin of these recorded values is patent US4002752A.

test: in vivo; settings: mouse, po
Assay endpoint: LD50

COC1C=COC2(C)Oc3c(C)c(O)c4c(O)c(c(C=NN5CCN(C6CCCC6)CC5)c(O)c4c3C2=O)NC(=O)C(C)=CC=CC(C)C(O)C(C)C(O)C(C)C(OC(C)=O)C1C (centres unmarked) [cyclopentyl derivative]
> 2000 mg/kg

input: Please give the documented LD50 of COC1C=COC2(C)Oc3c(C)c(O)c4c(O)c(c(C=NN5CCN(C6CCC6)CC5)c(O)c4c3C2=O)NC(=O)C(C)=CC=CC(C)C(O)C(C)C(O)C(C)C(OC(C)=O)C1C (centres unmarked) [cyclobutyl derivative]
output: > 2000 mg/kg

----------
test: in vivo; conditions: mouse, ip
Assay endpoint: LD50

COC1C=COC2(C)Oc3c(C)c(O)c4c(O)c(c(C=NN5CCN(C6CCC6)CC5)c(O)c4c3C2=O)NC(=O)C(C)=CC=CC(C)C(O)C(C)C(O)C(C)C(OC(C)=O)C1C (centres unmarked)
> 650 mg/kg

Let us examine a further case.
input: Please give the documented LD50 of COC1C=COC2(C)Oc3c(C)c(O)c4c(O)c(c(C=NN5CCN(C6CCCC6)CC5)c(O)c4c3C2=O)NC(=O)C(C)=CC=CC(C)C(O)C(C)C(O)C(C)C(OC(C)=O)C1C (centres unmarked)
output: > 750 mg/kg
